# Assay Summary: In vivo biodistribution of radiolabeled complexes in normal athymic mice
# Setup Conditions: non-tumor bearing mice, 4.00 hr; ± SD
Readout: percent injected dose per gram, Liver (% ID/g)
A number alone suffices; assume % ID/g.

I'd like to know its percent injected dose per gram, Liver. The compound in question is O=C(O)CNC(Cc1ccc([N+](=O)[O-])cc1)CN1CCN(CC(=O)O)CCN(CC(=O)O)CC1.[177Lu] (stereo not shown) [^177Lu-C-NE3TA]
0.50

What value of measured percent injected dose per gram, Liver is listed for O=C(O)CNC(Cc1ccc([N+](=O)[O-])cc1)CN1CCN(CC(=O)O)CCN(CC(=O)O)CC1.[90Y] (stereo not shown) [^90Y-C-NE3TA] ?
0.17

Which percent injected dose per gram, Liver reading was recorded for the compound O=C(O)CNC(Cc1ccc([N+](=O)[O-])cc1)CN1CCN(CC(=O)O)CCN(CC(=O)O)CC1.[153Gd] (stereo not shown) [^153Gd-C-NE3TA] ?
0.03

Would you mind telling me what percent injected dose per gram, Liver value was observed for O=C([O-])CNC(Cc1ccc([N+](=O)[O-])cc1)CN1CCN(CC(=O)[O-])CCN(CC(=O)[O-])CC1.[Bi+3] (stereo not shown) ?
0.52

* * *

# Assay Summary: In vivo biodistribution of radiolabeled complexes in normal athymic mice
# Setup Conditions: non-tumor bearing mice, 1.00 hr; ± SD
Readout: percent injected dose per gram, Lung (% ID/g)
Report the figure in % ID/g without appending any unit label.

Returns the measured percent injected dose per gram, Lung for the input molecule. Input: O=C(O)CNC(Cc1ccc([N+](=O)[O-])cc1)CN1CCN(CC(=O)O)CCN(CC(=O)O)CC1.[153Gd] (stereo not shown) [^153Gd-C-NE3TA]
0.32

// percent injected dose per gram, Lung lookup, key: O=C(O)CNC(Cc1ccc([N+](=O)[O-])cc1)CN1CCN(CC(=O)O)CCN(CC(=O)O)CC1.[177Lu] (stereo not shown) [^177Lu-C-NE3TA]
0.42

Could you share which percent injected dose per gram, Lung value was measured for O=C(O)CNC(Cc1ccc([N+](=O)[O-])cc1)CN1CCN(CC(=O)O)CCN(CC(=O)O)CC1.[90Y] (stereo not shown) [^90Y-C-NE3TA] ?
1.16

// returns reported percent injected dose per gram, Lung for input O=C([O-])CNC(Cc1ccc([N+](=O)[O-])cc1)CN1CCN(CC(=O)[O-])CCN(CC(=O)[O-])CC1.[Bi+3] (stereo not shown)
0.25

* * *

# Assay Summary: In vitro serum stability of 64Cu-labeled ligands in rat serum (radio-TLC)
# Format: in vitro ADME
# Setup Conditions: 37° C., incubation time 1 h, n=3
Readout: Purity (serum stability, radio-TLC)
Answer field: number only, no words.

Give its Purity (serum stability, radio-TLC) value. Item: O=C(O)CN1CCN(CCO)CCN(CC(=O)O)CC1.[64Cu] [^64Cu-NBEA]
100

Which Purity (serum stability, radio-TLC) is reported for this molecule? O=C(O)CN1CCN(CCN(CC(=O)O)Cc2ccccc2)CCN(CC(=O)O)CC1.[64Cu] [^64Cu-NE3TA-Bn]
100

Fill in the blank: the reported Purity (serum stability, radio-TLC) of O=C(O)CNCCN1CCN(CC(=O)O)CCN(CC(=O)O)CC1.[64Cu] [^64Cu-NE3TA] is ____.
100

Consider the molecule shown here: O=C(O)CN1CCN(CCCO)CCN(CC(=O)O)CC1.[64Cu] [^64Cu-NBPA] What is its recorded Purity (serum stability, radio-TLC)?
99.6

* * *

# Assay Summary: In vivo biodistribution of radiolabeled complexes in normal athymic mice
# Setup Conditions: non-tumor bearing mice, 0.50 hr; ± SD
I'd appreciate it if you could supply percent injected dose per gram, Liver values for the items below.
Note: state the figure and append the unit.

Entry under review: O=C(O)CNC(Cc1ccc([N+](=O)[O-])cc1)CN1CCN(CC(=O)O)CCN(CC(=O)O)CC1.[90Y] (stereo not shown) [^90Y-C-NE3TA] . Reported percent injected dose per gram, Liver?
1.65 ± 0.59 % ID/g

Name the reported percent injected dose per gram, Liver value associated with the compound O=C(O)CNC(Cc1ccc([N+](=O)[O-])cc1)CN1CCN(CC(=O)O)CCN(CC(=O)O)CC1.[177Lu] (stereo not shown) [^177Lu-C-NE3TA]
0.82 ± 0.27 % ID/g

Look at this compound and give its reported percent injected dose per gram, Liver. O=C(O)CNC(Cc1ccc([N+](=O)[O-])cc1)CN1CCN(CC(=O)O)CCN(CC(=O)O)CC1.[153Gd] (stereo not shown) [^153Gd-C-NE3TA]
1.74 ± 0.69 % ID/g

Record request: percent injected dose per gram, Liver value, item O=C([O-])CNC(Cc1ccc([N+](=O)[O-])cc1)CN1CCN(CC(=O)[O-])CCN(CC(=O)[O-])CC1.[Bi+3] (stereo not shown) [^205/6Bi-C-NE3TA]
1.01 ± 0.15 % ID/g

* * *

For each entry below, report its percent injected dose per gram, Spleen value.
# Assay Summary: In vivo biodistribution of radiolabeled complexes in normal athymic mice
# Setup Conditions: non-tumor bearing mice, 1.00 hr; ± SD
Your answer is read as % ID/g, so omit the unit and give the number.

Give its percent injected dose per gram, Spleen value. Item: O=C(O)CNC(Cc1ccc([N+](=O)[O-])cc1)CN1CCN(CC(=O)O)CCN(CC(=O)O)CC1.[177Lu] (stereo not shown) [^177Lu-C-NE3TA]
0.28

Could you share which percent injected dose per gram, Spleen value was measured for O=C(O)CNC(Cc1ccc([N+](=O)[O-])cc1)CN1CCN(CC(=O)O)CCN(CC(=O)O)CC1.[153Gd] (stereo not shown) [^153Gd-C-NE3TA] ?
0.24

So what does the record say about percent injected dose per gram, Spleen for O=C([O-])CNC(Cc1ccc([N+](=O)[O-])cc1)CN1CCN(CC(=O)[O-])CCN(CC(=O)[O-])CC1.[Bi+3] (stereo not shown) ?
0.25

Need percent injected dose per gram, Spleen of O=C(O)CNC(Cc1ccc([N+](=O)[O-])cc1)CN1CCN(CC(=O)O)CCN(CC(=O)O)CC1.[90Y] (stereo not shown) [^90Y-C-NE3TA] , thanks.
0.47
